Target or system USP30 (Homo sapiens (Human), UniProt Q70CQ3): recorded IC50 listed per item.

The following compounds have reported results that may help.
CNC(=O)c1cccc(-c2cnc3[nH]c(C4CCN(C#N)C4)nc3c2)c1 (centres unmarked) [Example 89]; 1000 to 10000 nM
N#CN1CCC(c2[nH]nc(-c3cccc(-c4ccccc4)c3)c2F)C1 (single isomer, unassigned) [Example 16]; 100 to 1000 nM
N#CN1CCC(c2nc3nccc(-c4ccccc4)c3[nH]2)C1 (centres unmarked) [Example 98]; 1000 to 10000 nM
C[C@@H]1CN(C#N)C[C@H]1c1cc(-c2ccccc2)n[nH]1 (relative stereo) [Example 49]; 1000 to 10000 nM
N#CN1CCCC1c1noc(-c2cccc(-c3cccnc3)c2)n1 (centres unmarked) [Example 152]; 100 to 1000 nM

Attention now shifts to the item below.
Please fill in: IC50 reported for N#CN1CCC(c2cc(-c3cccc(-c4ccccc4)c3)no2)C1 (single isomer, unassigned) [Example 118] = < 100 nM

###

targetUnderTest: UniProt Q70CQ3
pIC50: −log10 of the molar value.
reportedEndpoint: pIC50

The following molecules have reported results that may help.
N#CN1CCC(c2cc(-c3ccc(-c4ccccc4)cc3)[nH]n2)C1 (stereo not drawn) [Example 35]; 6.00 to 7.00
N#CN1CCCC1c1noc(-c2ccnc(-c3ccccc3)c2)n1 (stereo not drawn) [Example 167]; 6.00 to 7.00
CC[C@@H]1CN(C#N)C[C@H]1c1cc(-c2cccc(-c3ccccc3)c2)n[nH]1 (single isomer, unassigned) [Example 44]; 5.00 to 6.00
N#CN1CCC(c2nnc(-c3ccc(-c4ccccc4)cc3)[nH]2)C1 (stereo not drawn) [Example 112]; 6.00 to 7.00
N#CN1CCC(c2cc(-c3ccc(C(N)=O)cc3)n[nH]2)C1 (stereo not drawn) [Example 4]; 5.00 to 6.00

Please fill in: pIC50 reported for N#Cc1ccc(C2CN(c3noc(C4CCN(C#N)C4)n3)C2)cc1 (stereo not drawn) [Example 198] = 6.00 to 7.00

Please fill in: pIC50 reported for N#CN1CCC(c2noc(-c3ccc(Br)cc3)n2)C1 (stereo not drawn) [Example 60] = 5.00 to 6.00

Please fill in: pIC50 reported for N#CN1CCC(c2cc(-c3cccc(-c4ccccc4)c3)no2)C1 (single isomer, unassigned) [Example 119] = > 7.00

Please fill in: pIC50 reported for N#Cc1cnn(-c2ccnc(-c3nc([C@@H]4CCCN4C#N)no3)c2)c1 [Example 191] = 5.00 to 6.00

Please fill in: pIC50 reported for N#CN1CCC(c2cc(-c3cccc(-c4ccccc4)n3)[nH]n2)C1 (stereo not drawn) [Example 37] = 6.00 to 7.00

Please fill in: pIC50 reported for N#Cc1cnn(-c2cncc(-c3nc([C@@H]4CCCN4C#N)no3)n2)c1 [Example 202] = 6.00 to 7.00

Please fill in: pIC50 reported for N#CN1CCC[C@H]1c1nc2cc(-c3cccc([N+](=O)[O-])c3)ccc2o1 [Example 136] = 6.00 to 7.00

###

pIC50: −log10 of the molar value.
Target or system USP30 (Homo sapiens (Human), UniProt Q70CQ3): recorded pIC50 listed per item.

The following compounds have reported results that may help.
N#Cc1cnn(-c2cccc(-c3nc([C@@H]4CCCN4C#N)no3)c2)c1; 6.00 to 7.00
Cc1c(-c2ccccc2)cnc2nc(C3CCN(C#N)C3)[nH]c12 (centres unmarked); 6.00 to 7.00
COc1ccc(-c2cccc(-c3nc(C4CCCN4C#N)no3)c2)cn1 (centres unmarked); 5.00 to 6.00
N#CN1CCC(c2nnc(-c3ccccc3)[nH]2)C1 (centres unmarked); 5.00 to 6.00
N#CN1CCC(c2nc3cc(-c4ccncc4)cnc3[nH]2)C1 (single isomer, unassigned) [Example 82]; 5.00 to 6.00
N#CN1CCC(c2noc(C3CCN(c4ccccc4)C3)n2)C1 (centres unmarked); 6.00 to 7.00
N#Cc1cccc(-c2cnc3[nH]c(C4CCN(C#N)C4)nc3c2)c1 (centres unmarked); 6.00 to 7.00
N#Cc1cnn(-c2cc(-c3nc([C@@H]4CCCN4C#N)no3)ccn2)c1; 5.00 to 6.00

Query C[C@H]1CN(C#N)C[C@@H]1c1[nH]nc(-c2cccc(-c3ccccc3)c2)c1F [Example 23] on USP30 (Homo sapiens (Human), UniProt Q70CQ3); pIC50 returned: 6.00 to 7.00

Query N#CN1CCC(c2[nH]nc(-c3cccc(-c4ccccc4)c3)c2F)C1 (single isomer, unassigned) [Example 17] on USP30 (Homo sapiens (Human), UniProt Q70CQ3); pIC50 returned: > 7.00

Query N#Cc1cccc(-c2ccc3oc([C@@H]4CCCN4C#N)nc3c2)n1 on USP30 (Homo sapiens (Human), UniProt Q70CQ3); pIC50 returned: 5.00 to 6.00

###

pIC50: −log10 of the molar value.
Target or system USP30 (Homo sapiens (Human), UniProt Q70CQ3): recorded pIC50 listed per item.

The following molecules have reported results that may help.
Cn1c(C2CCN(C#N)C2)nc2cc(-c3ccccc3)cnc21 (stereo not drawn) [Example 101]; 6.00 to 7.00
N#Cc1ccc(-c2nccc(-c3nc([C@@H]4CCCN4C#N)no3)n2)cc1 [Example 185]; 6.00 to 7.00
CNC(=O)c1cc(-c2ccccc2)cc2oc([C@@H]3CCCN3C#N)nc12 [Example 122]; 4.00 to 5.00
CN(C)S(=O)(=O)c1cccc(-c2cccc(-c3nc(C4CCCN4C#N)no3)c2)c1 (stereo not drawn) [Example 150]; 5.00 to 6.00
N#Cc1cnn(-c2nccc(-c3nc([C@@H]4CCCN4C#N)no3)n2)c1 [Example 187]; 6.00 to 7.00

Please fill in: pIC50 reported for N#CN1CCC(c2cc(-c3ccc(-c4ncccn4)cn3)n[nH]2)C1 (stereo not drawn) [Example 195] = > 7.00

Please fill in: pIC50 reported for N#Cc1cccc(-c2ccc3oc([C@@H]4CCCN4C#N)nc3c2)c1 [Example 126] = 6.00 to 7.00

Please fill in: pIC50 reported for Cc1nc2nc(C3CCN(C#N)C3)[nH]c2cc1-c1ccccc1 (stereo not drawn) [Example 99] = 6.00 to 7.00

Please fill in: pIC50 reported for N#CN1CCC(c2ncc(-c3ccccc3)c(=O)[nH]2)C1 (stereo not drawn) [Example 120] = 5.00 to 6.00

Please fill in: pIC50 reported for N#Cc1ccc(-c2cnc3[nH]c(C4CCN(C#N)C4)nc3c2)cc1 (stereo not drawn) [Example 84] = 6.00 to 7.00

Please fill in: pIC50 reported for N#Cc1cccc(-c2cc(-c3nc(C4CCCN4C#N)no3)ccn2)n1 (stereo not drawn) [Example 180] = 6.00 to 7.00

Please fill in: pIC50 reported for CC(C)Oc1ccc(-c2ccc3nc(C4CCN(C#N)C4)[nH]c3c2)cn1 (stereo not drawn) [Example 77] = 6.00 to 7.00

Please fill in: pIC50 reported for Cn1ncc2cc(-c3cccc(-c4nc(C5CCCN5C#N)no4)c3)ccc21 (stereo not drawn) [Example 151] = 6.00 to 7.00

Please fill in: pIC50 reported for N#CN1CCCC1c1noc(-c2ccnc(-c3cccc(OC(F)(F)F)c3)c2)n1 (stereo not drawn) [Example 168] = 6.00 to 7.00

Please fill in: pIC50 reported for N#Cc1cc(-c2cc(-c3nc([C@@H]4CCCN4C#N)no3)ccn2)ccn1 [Example 181] = > 7.00

Please fill in: pIC50 reported for CNC(=O)c1ccc(-c2cc(C3CCN(C#N)C3)[nH]n2)cn1 (stereo not drawn) [Example 3] = 5.00 to 6.00

Please fill in: pIC50 reported for N#CN1CCC(c2[nH]nc(-c3cccc(-c4ccccc4)c3)c2F)C1 (stereo not drawn) [Example 15] = > 7.00

Please fill in: pIC50 reported for N#CN1CCC(c2nc3cc(-c4ccncc4)cnc3[nH]2)C1 (single isomer, unassigned) [Example 81] = 6.00 to 7.00
